- TGT: Sodium/glucose cotransporter 1 (Homo sapiens, UniProt P13866)
- Sequence (P13866 whole entry): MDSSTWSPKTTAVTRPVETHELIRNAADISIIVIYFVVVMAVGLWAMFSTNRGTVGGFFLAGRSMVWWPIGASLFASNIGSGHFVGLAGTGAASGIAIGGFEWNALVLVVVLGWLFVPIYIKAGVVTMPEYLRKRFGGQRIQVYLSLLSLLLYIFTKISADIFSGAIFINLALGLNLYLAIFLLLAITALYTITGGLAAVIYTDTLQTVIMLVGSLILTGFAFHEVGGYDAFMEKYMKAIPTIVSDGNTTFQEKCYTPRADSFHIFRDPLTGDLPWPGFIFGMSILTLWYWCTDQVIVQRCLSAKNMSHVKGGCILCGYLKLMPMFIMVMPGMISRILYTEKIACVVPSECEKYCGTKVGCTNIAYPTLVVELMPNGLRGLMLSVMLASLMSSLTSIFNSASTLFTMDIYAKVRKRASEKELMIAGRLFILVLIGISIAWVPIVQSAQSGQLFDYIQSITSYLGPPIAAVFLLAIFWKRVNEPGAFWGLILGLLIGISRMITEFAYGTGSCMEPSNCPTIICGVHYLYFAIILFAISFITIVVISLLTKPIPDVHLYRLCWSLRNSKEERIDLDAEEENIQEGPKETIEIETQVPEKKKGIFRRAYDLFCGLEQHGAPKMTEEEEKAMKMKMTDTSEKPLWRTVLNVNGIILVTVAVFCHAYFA
- METHOD SUMMARY: Inhibition of human SGLT1 expressed in CHOK1 cells assessed as reduction in Na-dependent [14C]-methyl-alpha-D-glucopyranoside uptake after 30 mins by microbeta counting method
RESULT TYPE: IC50 (nM)

INSERT INTO results (chemical_structure, result) VALUES
  ('Cc1cc(O)c([C@@H]2S[C@H](CO)[C@@H](O)[C@H](O)[C@H]2O)cc1Cc1ccc(CCCC(=O)NC(C)(CO)CO)cc1', 22),
  ('Cc1cc(O)c([C@@H]2O[C@H](CO)[C@@H](O)[C@H](O)[C@H]2O)cc1Cc1ccc(CCNC(=O)NC(CO)(CO)CO)cc1', 28),
  ('Cc1cc(O)c([C@@H]2S[C@H](CO)[C@@H](O)[C@H](O)[C@H]2O)cc1Cc1ccc(OC(C)C)cc1', 414);

[a] Cc1ccc(Cc2cc([C@@H]3S[C@H](CO)[C@@H](O)[C@H](O)[C@H]3O)c(O)cc2C)cc1
[b] Cc1cc(O)c([C@@H]2O[C@H](CO)[C@@H](O)[C@H](O)[C@H]2O)cc1Cc1ccc(CCCC(=O)NC(C)(C)C(N)=O)cc1
Between the entries labeled a and b , whose measured IC50 is lower? In your reply, give the label of the chosen option.
a

Numbers sourced from ChEMBL document CHEMBL4265985.
